# assayed.system: glutathione-S-transferase (GST) tagged LXRbeta LBD (ligand binding domain) (Homo sapiens, UniProt P55055)
# Construct: purchased Invitrogen pv4658
# measurement.description: LanthaScreen TR-FRET Liver X Receptor Coactivator Assay, LXR beta
# Format: biochemical
# condition.context: LXR beta IP, potency (Inflection Point), compound-induced co-activator recruitment, TR-FRET
pEC50: −log10 of the molar value.
Reported pEC50 is given for each of the following compounds.

compound: COc1cccc(C(O)(C(=O)N2CCC(C(F)(F)CCCOc3ccc(C(=O)N(C)C)c(Cl)c3)CC2)C(F)(F)F)c1 (single isomer, unassigned) [Example 22-1]
pEC50: 8.15
--
compound: CCC(C)(C(=O)N1CCC2(CC1)C[C@H]2CCOc1ccc(C(=O)N(C)C)c(Cl)c1)c1ccccc1 (single isomer, unassigned) [Example 12-13]
pEC50: 7.77
--
compound: CN(C)C(=O)c1ccc(OCC[C@@H]2CC23CCN(C(=O)[C@](N)(c2ccccc2)C(F)(F)F)CC3)cc1Cl (single isomer, unassigned) [Example 12-21]
pEC50: 7.38
--
compound: COc1cccc([C@](O)(C(=O)N2CCC(CCCC(C)Oc3ccc(C(=O)N(C)C)c(Cl)c3)CC2)C(F)(F)F)c1 (single isomer, unassigned) [Example 25-2]
pEC50: 7.01
--
compound: CN(C)C(=O)c1ccc(OCC[C@@H]2C[C@@H]2C2CCN(C(=O)OCc3ccccc3)CC2)nc1Cl (single isomer, unassigned) [Example 10-7]
pEC50: 7.31
--
compound: CN(C)CCCNC(=O)c1ccc(OCCCCC2CCN(C(=O)[C@](O)(c3ccccc3)C(F)(F)F)CC2)cc1Cl (single isomer, unassigned) [Example 8-19]
pEC50: 7.48
--
compound: CN(C)C(=O)c1ccc(OC[C@@H]2C[C@H]2C2CCN(C(=O)[C@](O)(c3ccccc3)C(F)(F)C(F)(F)F)CC2)cc1Cl (single isomer, unassigned) [Example 32-3]
pEC50: 6.98
--
compound: COc1cccc(C(O)(C(=O)N2CCC3(CCC(Oc4ccc(C(=O)N(C)C)c(Cl)n4)CC3)CC2)C(F)(F)F)c1 (single isomer, unassigned) [Example 1-2]
pEC50: 7.04
--
compound: CC(C)Oc1cccc(C(O)(C(=O)N2CCC(CCCCOc3ccc(C(=O)N(C)C)c(Cl)c3)CC2)C(F)(F)F)c1 (single isomer, unassigned) [Example 3-11]
pEC50: 8.05
--
compound: CN(C)C(=O)c1ccc(OCCCCC2CCN(S(=O)(=O)c3c(Cl)cccc3Cl)CC2)nc1Cl [Example 7-2]
pEC50: 7.64
--
compound: Cc1nc(OC2CCC3(CC2)CCN(C(=O)C(O)(c2cccc(OC4CC4)c2)C(F)(F)F)CC3)ccc1C(=O)N(C)C (single isomer, unassigned) [Example 2-1]
pEC50: 6.85

----------
Reported Emax is given for each of the following compounds.
# assayed.system: glutathione-S-transferase (GST) tagged LXRbeta LBD (ligand binding domain) (Homo sapiens)
# Construct: purchased Invitrogen pv4658
# Sequence (P55055 222-460 limits assumed): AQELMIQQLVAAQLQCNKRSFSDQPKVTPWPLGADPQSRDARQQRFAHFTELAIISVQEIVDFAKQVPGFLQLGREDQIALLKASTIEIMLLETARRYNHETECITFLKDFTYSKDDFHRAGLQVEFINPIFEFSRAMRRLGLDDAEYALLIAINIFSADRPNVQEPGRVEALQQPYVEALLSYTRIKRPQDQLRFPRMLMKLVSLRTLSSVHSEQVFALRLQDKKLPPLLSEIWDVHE
# measurement.description: LanthaScreen TR-FRET Liver X Receptor Coactivator Assay, LXR beta
# Format: biochemical
# condition.context: read-out: LXR beta actiivty at max dose, efficacy (% Emax) in relation to reference dual agonist T0901317

compound: CN(C)C(=O)c1ccc(OCC[C@@H]2C[C@@H]2C2CCN(C(=O)[C@@](O)(c3ccccc3)C(F)(F)F)CC2)nc1Cl (single isomer, unassigned)
Emax [%]: 71
--
compound: CN(C)C(=O)c1ccc(OCCCCC2CCN(C(=O)C(O)(c3cccc(F)c3)C(F)(F)F)CC2)cc1Cl (single isomer, unassigned)
Emax [%]: 73
--
compound: CN(C)C(=O)c1ccc(OC[C@@H]2C[C@H]2C2CCN(C(=O)[C@](O)(c3ccccc3)C(F)(F)C(F)(F)F)CC2)cc1Cl (single isomer, unassigned)
Emax [%]: 125
--
compound: COc1cccc([C@](O)(C(=O)N2CCC(C[C@H]3C[C@@H](Oc4ccc(C(=O)N(C)C)c(Cl)c4)C3)CC2)C(F)F)c1 (single isomer, unassigned)
Emax [%]: 95
--
compound: CN(C)C(=O)c1ccc(OCCCCC2CCN(C(=O)C3(c4ccccc4)CCC3)CC2)cc1Cl
Emax [%]: 54
--
compound: CN(C)C(=O)c1ccc(O[C@H]2C[C@@H](CC3CCN(C(=O)[C@](O)(c4cccc(C(F)(F)F)c4)C(F)(F)F)CC3)C2)cc1Cl (single isomer, unassigned)
Emax [%]: 119
--
compound: CN(C)C(=O)c1ccc(OCC[C@H]2CC23CCN(C(=O)[C@@](N)(c2ccccc2)C(F)(F)F)CC3)cc1Cl (single isomer, unassigned)
Emax [%]: 67
--
compound: CN(C)C(=O)c1ccc(OCCCCC2CCN(S(=O)(=O)c3ccccc3C#N)CC2)nc1Cl
Emax [%]: 120
--
compound: O=C(c1ccc(OCCCCC2CCN(C(=O)[C@](O)(c3ccccc3)C(F)(F)F)CC2)cc1Cl)N1CCC[C@@H]1CO (single isomer, unassigned)
Emax [%]: 44
--
compound: CN(C)C(=O)c1ccc(OC[C@H]2C[C@@H]2C2CCN(C(=O)C(C)(C)c3ccccc3)CC2)cc1Cl (single isomer, unassigned)
Emax [%]: 75
--
compound: CN(C)C(=O)c1ccc(OCC[C@@H]2C[C@@H]2C2CCN(C(=O)c3c(F)cccc3F)CC2)cc1Cl (single isomer, unassigned)
Emax [%]: 69

Origin of measurements: patent US11655216B2
